Values compiled from patent US20050113319A1.

Below is a list of entries, each paired with its recorded Activity retained following exposure, 10 μM Compound value.
STUDY_TARGET: motilin receptor (Homo sapiens, UniProt O43193)
Sequence (O43193 whole entry): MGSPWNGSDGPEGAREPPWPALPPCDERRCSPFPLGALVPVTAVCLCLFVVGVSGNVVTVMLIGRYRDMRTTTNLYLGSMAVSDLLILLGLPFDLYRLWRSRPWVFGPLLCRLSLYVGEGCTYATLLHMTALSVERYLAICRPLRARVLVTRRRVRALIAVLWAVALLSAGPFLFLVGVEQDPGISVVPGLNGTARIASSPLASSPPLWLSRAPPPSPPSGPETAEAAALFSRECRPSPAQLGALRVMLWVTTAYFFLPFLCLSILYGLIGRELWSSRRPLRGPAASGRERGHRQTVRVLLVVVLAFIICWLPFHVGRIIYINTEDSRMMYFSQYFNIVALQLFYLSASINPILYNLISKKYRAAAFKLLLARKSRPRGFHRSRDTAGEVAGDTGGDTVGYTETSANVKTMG
PROTOCOL_DESCRIPTION: Motilin receptor desensitization, cell-based assay
MEASUREMENT_PARAMETERS: motilin receptor activity retained after exposure to 10 μM test compound
PROPERTY_NAME: Activity retained following exposure, 10 μM Compound

| MOLECULE | OBSERVED_VALUE |
| --- | --- |
| CC[C@H]1OC(=O)[C@H](C)[C@@H](O[C@H]2C[C@@](C)(OC)[C@@H](O)[C@H](C)O2)[C@H](C)[C@@H](O[C@@H]2O[C@H](C)C[C@H](N(C)C)[C@H]2O)[C@@]2(C)C[C@@H](C)[C@H](O2)[C@H](C)C[C@H]1C [Compound IVb] | 49 % of original |
| CC[C@H]1OC(=O)[C@H](C)[C@@H](O[C@H]2C[C@@](C)(OC)C[C@H](C)O2)[C@H](C)[C@@H](O[C@@H]2O[C@H](C)C[C@H](N(C)C(C)C)[C@H]2O)[C@@]2(C)C[C@@H](C)[C@H](O2)[C@H](C)C[C@H]1C [Compound IVc] | 5 % of original |
| CC[C@H]1OC(=O)[C@H](C)[C@@H](O[C@H]2C[C@@](C)(OC)C[C@H](C)O2)[C@H](C)[C@@H](O[C@@H]2O[C@H](C)C[C@H](N(C)C)[C@H]2O)[C@@]2(C)C[C@@H](C)[C@H](O2)[C@H](C)C[C@H]1C [Compound IVa] | 7 % of original |
| CC[C@H]1OC(=O)[C@H](C)[C@@H](O[C@H]2C[C@@](C)(OC)C[C@H](C)O2)[C@H](C)[C@@H](O[C@@H]2O[C@H](C)C[C@H](N(C)CCF)[C@H]2O)[C@@]2(C)C[C@@H](C)[C@H](O2)[C@H](C)C[C@H]1C [Compound IVd] | 5 % of original |

====

STUDY_TARGET: motilin receptor (Homo sapiens)
PROTOCOL_DESCRIPTION: Motilin receptor desensitization, cell-based assay
MEASUREMENT_PARAMETERS: motilin receptor activity retained after exposure to 1 μM test compound
Below is a list of entries, each paired with its recorded Activity retained following exposure, 1 μM Compound value.
PROPERTY_NAME: Activity retained following exposure, 1 μM Compound

| SUBSTANCE_SMILES | OBSERVED_VALUE |
| --- | --- |
| CC[C@H]1OC(=O)[C@H](C)[C@@H](O[C@H]2C[C@@](C)(OC)[C@@H](O)[C@H](C)O2)[C@H](C)[C@@H](O[C@@H]2O[C@H](C)C[C@H](N(C)C)[C@H]2O)[C@@]2(C)C[C@@H](C)[C@H](O2)[C@H](C)C[C@H]1C | 57 % of original |
| CC[C@H]1OC(=O)[C@H](C)[C@@H](O[C@H]2C[C@@](C)(OC)C[C@H](C)O2)[C@H](C)[C@@H](O[C@@H]2O[C@H](C)C[C@H](N(C)C(C)C)[C@H]2O)[C@@]2(C)C[C@@H](C)[C@H](O2)[C@H](C)C[C@H]1C | 9 % of original |
| CC[C@H]1OC(=O)[C@H](C)[C@@H](O[C@H]2C[C@@](C)(OC)C[C@H](C)O2)[C@H](C)[C@@H](O[C@@H]2O[C@H](C)C[C@H](N(C)CCF)[C@H]2O)[C@@]2(C)C[C@@H](C)[C@H](O2)[C@H](C)C[C@H]1C | 7 % of original |
| CC[C@H]1OC(=O)[C@H](C)[C@@H](O[C@H]2C[C@@](C)(OC)C[C@H](C)O2)[C@H](C)[C@@H](O[C@@H]2O[C@H](C)C[C@H](N(C)C)[C@H]2O)[C@@]2(C)C[C@@H](C)[C@H](O2)[C@H](C)C[C@H]1C | 24 % of original |

====

STUDY_TARGET: motilin receptor (Homo sapiens, UniProt O43193)
PROTOCOL_DESCRIPTION: Motilin agonist activity (activation of the motilin receptor)
Below is a list of entries, each paired with its recorded EC50 value.

| COMPOUND | EC50 / nM |
| --- | --- |
| CC[C@H]1OC(=O)[C@H](C)[C@@H](O[C@H]2C[C@@](C)(OC)C[C@H](C)O2)[C@H](C)[C@@H](O[C@@H]2O[C@H](C)C[C@H](N(C)C(C)C)[C@H]2O)[C@@]2(C)C[C@@H](C)[C@H](O2)[C@H](C)C[C@H]1C [Compound IVc] | 13 |
| CC[C@H]1OC(=O)[C@H](C)[C@@H](O[C@H]2C[C@@](C)(OC)C[C@H](C)O2)[C@H](C)[C@@H](O[C@@H]2O[C@H](C)C[C@H](N(C)CCF)[C@H]2O)[C@@]2(C)C[C@@H](C)[C@H](O2)[C@H](C)C[C@H]1C [Compound IVd] | 45 |
| CC[C@H]1OC(=O)[C@H](C)[C@@H](O[C@H]2C[C@@](C)(OC)[C@@H](O)[C@H](C)O2)[C@H](C)[C@@H](O[C@@H]2O[C@H](C)C[C@H](N(C)C)[C@H]2O)[C@@]2(C)C[C@@H](C)[C@H](O2)[C@H](C)C[C@H]1C [Compound IVb] | 230 |
| CC[C@H]1OC(=O)[C@H](C)[C@@H](O[C@H]2C[C@@](C)(OC)C[C@H](C)O2)[C@H](C)[C@@H](O[C@@H]2O[C@H](C)C[C@H](N(C)C)[C@H]2O)[C@@]2(C)C[C@@H](C)[C@H](O2)[C@H](C)C[C@H]1C [Compound IVa] | 42 |
